Ref: PubChem BioAssay (NCI)

# TGI values compiled below
test system: NCI-H226 lung; test: NCI tumour cell line growth inhibition, 48 h
TEST_READOUT: TGI

COMPOUND: O=C1NCC2(CCN(Cc3ccccc3)CC2)N1
TARGET_OR_TEST_SYSTEM: NCI-H226 lung
RECORDED_MEASUREMENT: > 100 µM

COMPOUND: COC1OCC(OS(=O)(=O)c2ccc(C)cc2)C(OC(=O)c2ccccc2)C1OC(=O)c1ccccc1 (stereo not given)
TARGET_OR_TEST_SYSTEM: NCI-H226 lung
RECORDED_MEASUREMENT: > 100 µM

COMPOUND: CCc1ccc(CCC(=O)Nc2ncc(Cc3cc(Cl)ccc3Cl)s2)o1
TARGET_OR_TEST_SYSTEM: NCI-H226 lung
RECORDED_MEASUREMENT: > 50 µM

COMPOUND: CC1(C)CC(=O)C(CC(C(=O)C(=O)Nc2cc(C(F)(F)F)ccc2Cl)C(=O)c2ccco2)C(=O)C1 (stereo not given)
TARGET_OR_TEST_SYSTEM: NCI-H226 lung
RECORDED_MEASUREMENT: > 100 µM

COMPOUND: CC1(C)CC(=O)C(C(c2cccc(O)c2O)C2C(=O)CC(C)(C)CC2=O)C(=O)C1
TARGET_OR_TEST_SYSTEM: NCI-H226 lung
RECORDED_MEASUREMENT: > 100 µM

====

system: RXF-631 renal; assay: NCI tumour cell line growth inhibition, 48 h
TEST_READOUT: TGI (µM)

MOLECULE: COCC1C(=O)c2cc3c(cc2C12C=CC1(C=C2)OCCO1)OCO3 (stereo not drawn)
RECORDED_MEASUREMENT: 27.7

MOLECULE: COc1ccc2nc3cc(Cl)ccc3c(NCCC(=O)OCC(O)C(O)C(O[C@H](C)C(=O)NC(C)C(=O)NC(CCC(N)=O)C(=O)OCc3ccccc3)C(C=O)NC(C)=O)c2c1 (stereo partly drawn)
RECORDED_MEASUREMENT: 36.9

MOLECULE: COC(=O)NNc1c([N+](=O)[O-])cnn(-c2ccccc2)c1=O
RECORDED_MEASUREMENT: 3.88

====

system: SF-295 CNS; experiment: NCI tumour cell line growth inhibition, 48 h

COMPOUND: O=C(/C=C/C=C/c1ccccc1)c1ccc(Nc2nc(Nc3ccccc3)nc(Nc3ccccc3)n2)cc1
TGI: > 100 µM

COMPOUND: CC(=O)Nc1ccc2c3c(cc(O)c2c1)N(C(=O)CCCC(=O)Nc1ccc2c4c(cc(O)c2c1)N(C(=O)OC(C)(C)C)CC4CCl)CC3CCl (stereo not given)
TGI: > 42.9 µM

COMPOUND: COC(=O)C(/C(=N/N)C(=O)Nc1ccc(C)c(C)c1)c1nc2ccc(Cl)cc2[nH]c1=O (stereo not given)
TGI: > 100 µM

COMPOUND: COc1ccc(C(=O)/C=C2\c3ccccc3C(=O)N2C)cc1
TGI: > 100 µM

COMPOUND: O=C1Nc2ccccc2C1(c1ccc(O)c(F)c1)c1ccc(O)c(F)c1
TGI: 28.5 µM

COMPOUND: Nc1ncnc2c1ncn2[C@@H]1C[C@H]1CO
TGI: > 100 µM

COMPOUND: COc1ccc(-c2cc(-c3ccc(O)cc3)nc3nc(=S)[nH]c(N)c23)cc1
TGI: 61.6 µM

COMPOUND: CCOC(=O)c1ccc2c(c1)[n+](=O)c(C(=O)c1ccc3ccccc3c1)c(C(F)(F)F)n2[O-]
TGI: 3.17 µM

COMPOUND: CCOc1ccc(C2=C(Cl)c3cc(OC)c(OC)cc3C2Cl)cc1 (stereo not given)
TGI: > 100 µM

COMPOUND: CCCN(CCC)c1ccc(C=O)cc1
TGI: > 100 µM
